# tested_system: Substance-P receptor (Rattus norvegicus) (UniProt P14600)
# Sequence (P14600 whole entry, looked up): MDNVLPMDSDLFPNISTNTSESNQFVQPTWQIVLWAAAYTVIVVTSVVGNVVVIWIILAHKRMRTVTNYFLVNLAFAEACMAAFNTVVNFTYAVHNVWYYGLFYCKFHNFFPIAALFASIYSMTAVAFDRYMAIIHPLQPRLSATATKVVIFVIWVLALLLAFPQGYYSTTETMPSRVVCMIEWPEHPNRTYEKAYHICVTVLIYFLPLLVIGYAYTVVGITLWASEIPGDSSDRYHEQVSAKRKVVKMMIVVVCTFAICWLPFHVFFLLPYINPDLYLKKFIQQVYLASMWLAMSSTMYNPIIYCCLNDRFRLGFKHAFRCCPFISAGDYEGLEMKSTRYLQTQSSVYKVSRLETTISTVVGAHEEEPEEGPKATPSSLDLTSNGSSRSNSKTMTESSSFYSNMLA
# test_name: Antagonistic activity against Substance P receptor in rat spinal cord at concentration of 50 uM.
assay_readout: Change in amplitude response (%)
Write the value in % as a bare number.

COC(=O)[C@@H](CCSC)NC(=O)[C@H](CC(C)C)NC(=O)[C@@H](Cc1c[nH]c2ccccc12)NC(=O)[C@H](Cc1c[nH]c2ccccc12)NC(=O)[C@@H](Cc1c[nH]c2ccccc12)NC(=O)[C@H](CCC(N)=O)NC(=O)[C@H](CCC(N)=O)NC(=O)[C@@H]1CCCN1C(=O)[C@H](CCCCN)NC(=O)[C@@H]1CCCN1C(=O)[C@@H](N)CCCN=C(N)N :: -19

Problem: Consider the compound COC(=O)[C@H](CCSC)NC(=O)[C@@H]1CCCN1C(=O)[C@H]1CCCN1C(=O)[C@H](Cc1ccccc1)NC(=O)[C@H](Cc1ccccc1)NC(=O)[C@H](CCC(N)=O)NC(=O)[C@H](CCC(N)=O)NC(=O)[C@@H]1CCCN1C(=O)[C@H](CCCCNC(=O)OCc1ccccc1)NC(=O)[C@@H]1CCCN1C(=O)[C@H](CCCN=C(N)N)NC(=O)OCc1ccccc1 . State its measured Change in amplitude response.
Solution: -9

Data credit: ChEMBL document CHEMBL1123529
